molecular target: T1, IFN-αJ1 (human, UniProt P01567 24-189); assay: ProteOn SPR, cell supernatant;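 also: each binding measurement used just a single antigen concentration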
T1 construct: Recombinant, HEK293; also called IFN-α7
Entries and their Kd
Entry rule: numbers only, all in nM.

Solved cases (2 shown):
- binder: "IFWM3379 (antibody, IgG1, V domains shown, mAb; IgG1/kappa said of the parent and of selected mAbs; also called IFWB3114) VH: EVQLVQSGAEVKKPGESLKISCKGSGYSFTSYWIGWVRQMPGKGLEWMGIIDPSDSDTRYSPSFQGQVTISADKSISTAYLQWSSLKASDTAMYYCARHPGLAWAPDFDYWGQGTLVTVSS VL: DIQMTQSPSSLSASVGDRVTITCRASQSIDGSLNWYQQKPGKAPKLLIYFASSLQSGVPSRFSGSGSGTDFTLTISSLQPEDFATYYCQQSYDFPLTFGQGTKVEIK"
  measurement.label: "Kd"
  value: 0.033
- binder: "IFWM3416 (antibody, IgG1, V domains shown, mAb; IgG1/kappa said of the parent and of selected mAbs; also called IFWB3151) VH: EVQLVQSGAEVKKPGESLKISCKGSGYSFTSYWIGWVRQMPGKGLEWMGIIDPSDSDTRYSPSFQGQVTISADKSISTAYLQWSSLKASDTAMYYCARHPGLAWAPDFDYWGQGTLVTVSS VL: DIQMTQSPSSLSASVGDRVTITCRASQSIRNTNLNWYQQKPGKAPKLLIHWASSLQSGVPSRFSGSGSGTDFTLTISSLQPEDFATYYCQQGYDTPFTFGQGTKVEIK"
  measurement.label: "Kd"
  value: 0.068

Now, please, on to the next binder.
Query block: Would you kindly share the measured Kd for IFWM3397 (antibody, IgG1, V domains shown, mAb; IgG1/kappa said of the parent and of selected mAbs; also called IFWB3132) VH: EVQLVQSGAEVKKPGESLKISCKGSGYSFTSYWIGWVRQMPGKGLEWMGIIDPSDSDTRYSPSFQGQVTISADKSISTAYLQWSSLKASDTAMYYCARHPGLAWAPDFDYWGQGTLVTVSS VL: DIQMTQSPSSLSASVGDRVTITCRASQSITGFLNWYQQKPGKAPKLLIYAASSLQSGVPSRFSGSGSGTDFTLTISSLQPEDFATYYCQQSHDFPLTFGQGTKVEIK ?
Result block: 0.078
